Assay: Characterization of lipid nanoparticles encapsulating Fluc-mRNA prepared from different cap structures
Assay type: physicochemical
Details: encapsulation efficiency of LNP with Fluc-mRNA transcribed using the named cap analog
ENDPOINT LABEL: EE

Return EE for the following compound: CO[C@@H]1[C@H](OP(=O)(O)OC[C@H]2O[C@@H](n3cnc4c(=O)[nH]c(N)nc43)[C@H](O)[C@@H]2O)[C@@H](COP(=O)(O)OP(=O)(O)OP(=O)(O)OC[C@H]2O[C@@H]([n+]3cn(C)c4c(=O)[nH]c(N)nc43)[C@H](O)[C@]2(C)NC(C)=O)O[C@H]1n1cnc2c(N)ncnc21
97.1%

---

System: BALB/C mice
Test: In vivo imaging of Fluc-mRNA LNP expression in mice
Details: 24 h
# Multiple of total radiation intensity relative to m6A >= 3 gives Yes, anything below gives No

hey, is Multiple of total radiation intensity relative to m6A for this one >= 3? COC(C)[C@H]1[C@@H](O)[C@H]([n+]2cn(C)c3c(=O)[nH]c(N)nc32)O[C@@H]1COP(=O)(O)OP(=O)(O)OP(=O)(O)OC[C@H]1O[C@@H](n2cnc3c(N)ncnc32)[C@H](OC)[C@@H]1OP(=O)(O)OC[C@H]1O[C@@H](n2cnc3c(=O)[nH]c(N)nc32)[C@H](O)[C@@H]1O (stereo partly shown)
No

hey, is Multiple of total radiation intensity relative to m6A for this one >= 3? CO[C@@H]1[C@H](OP(=O)(O)OC[C@H]2O[C@@H](n3cnc4c(=O)[nH]c(N)nc43)[C@H](O)[C@@H]2O)[C@@H](COP(=O)(O)OP(=O)(O)OP(=O)(O)OC[C@H]2O[C@@H]([n+]3cn(C)c4c(=O)[nH]c(N)nc43)[C@H](O)[C@@H]2C(F)F)O[C@H]1n1cnc2c(N)ncnc21
Yes

---

Assay: Characterization of lipid nanoparticles encapsulating Fluc-mRNA prepared from different cap structures
Assay type: physicochemical
Settings: LNP (YK-009/DSPC/cholesterol/DMG-PEG2000) with Fluc-mRNA transcribed using the named cap analog
ENDPOINT LABEL: Particle size
Field note: include the unit after the figure.

Return Particle size for the following molecule: CO[C@@H]1[C@H](OP(=O)(O)OC[C@H]2O[C@@H](n3cnc4c(=O)[nH]c(N)nc43)[C@H](O)[C@@H]2O)[C@@H](COP(=O)(O)OP(=O)(O)OP(=O)(O)OC[C@H]2O[C@@H]([n+]3cn(C)c4c(=O)[nH]c(N)nc43)[C@H](O)[C@]2(F)CN(C)C)O[C@H]1n1cnc2c(N)ncnc21
69.24 nm

---

Target: T7 RNA polymerase (Escherichia phage T7)
Sequence (P00573 whole entry): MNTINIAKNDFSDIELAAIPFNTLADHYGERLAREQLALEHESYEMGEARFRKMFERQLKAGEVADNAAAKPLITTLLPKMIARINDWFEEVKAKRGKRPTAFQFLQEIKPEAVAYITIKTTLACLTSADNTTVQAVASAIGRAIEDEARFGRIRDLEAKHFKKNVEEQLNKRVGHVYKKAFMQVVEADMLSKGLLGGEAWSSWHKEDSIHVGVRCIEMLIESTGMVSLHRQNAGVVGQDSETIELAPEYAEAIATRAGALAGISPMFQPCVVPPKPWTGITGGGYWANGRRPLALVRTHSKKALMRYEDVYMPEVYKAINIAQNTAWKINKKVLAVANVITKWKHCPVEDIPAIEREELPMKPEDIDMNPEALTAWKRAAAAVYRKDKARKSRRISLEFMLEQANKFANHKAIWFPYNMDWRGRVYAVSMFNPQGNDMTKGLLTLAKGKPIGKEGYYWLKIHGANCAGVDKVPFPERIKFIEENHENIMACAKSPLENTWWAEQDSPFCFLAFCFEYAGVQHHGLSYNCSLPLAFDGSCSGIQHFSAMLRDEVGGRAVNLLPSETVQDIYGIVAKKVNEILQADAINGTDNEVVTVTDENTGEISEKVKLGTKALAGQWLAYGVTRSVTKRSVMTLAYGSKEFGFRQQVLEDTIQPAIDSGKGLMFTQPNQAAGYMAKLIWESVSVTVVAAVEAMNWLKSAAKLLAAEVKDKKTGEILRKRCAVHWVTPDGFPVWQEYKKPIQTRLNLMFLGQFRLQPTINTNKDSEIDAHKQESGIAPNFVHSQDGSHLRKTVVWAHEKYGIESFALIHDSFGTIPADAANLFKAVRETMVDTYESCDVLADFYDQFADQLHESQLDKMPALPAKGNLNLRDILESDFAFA
Assay: Capping rate of mRNA transcription initiated by cap analogs (LC-MS)
Format: biochemical
Settings: relative to 5227
Attribute: Increase relative to 5227 (capping rate)

CO[C@@H]1[C@H](OP(=O)(O)OC[C@H]2O[C@@H](n3cnc4c(=O)[nH]c(N)nc43)[C@H](O)[C@@H]2O)[C@@H](COP(=O)(O)OP(=O)(O)OP(=O)(O)OC[C@@]2(C(F)F)O[C@@H]([n+]3cn(C)c4c(=O)[nH]c(N)nc43)[C@H](O)[C@@H]2O)O[C@H]1n1cnc2c(N)ncnc21 [YK-CAP-119]    33.9%

Switching to the query record.
Return Increase relative to 5227 (capping rate) for the following molecule: CO[C@@H]1[C@H](OP(=O)(O)OC[C@H]2O[C@@H](n3cnc4c(=O)[nH]c(N)nc43)[C@H](O)[C@@H]2O)[C@@H](COP(=O)(O)OP(=O)(O)OP(=O)(O)OC[C@H]2O[C@@H]([n+]3cn(C)c4c(=O)[nH]c(N)nc43)[C@H](O)[C@]2(F)CN(C)C)O[C@H]1n1cnc2c(N)ncnc21 [YK-CAP-104]
7.4%

Data origin, for the record: patent US12576099B2
